Hey, just so you know, these numbers are from paper PMC4414246.

# reported Kd; entries follow
target: U1A E19A:N15V (UniProt P09012 10-89, N15V;E19A); assay: fluorescence polarization
Sequence (P09012 10-89 N15V/E19A): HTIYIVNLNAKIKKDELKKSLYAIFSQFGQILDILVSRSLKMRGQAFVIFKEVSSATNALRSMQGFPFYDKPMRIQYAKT
Answer format: numeric, µM implied, no suffix.

binder="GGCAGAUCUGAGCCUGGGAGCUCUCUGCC (structured_RNA) [TAR RNA]" unit_descriptor=µM observed_value=14.2

# next binder below
Q. # query: Kd of entry AGCUUAUCCAUUGCACCGGAUAAGCU (structured_RNA) [U1hpII RNA]
A. 48.4
